src = ChEMBL document CHEMBL4296182

Tested on: Staphylococcus aureus
Experiment: Antibacterial activity against Staphylococcus aureus MRSA ATCC 43300 (CO-ADD:GP_020); MIC in CAMBH media using NBS plates, by Resazurin F(560/590)
Format: functional
Conditions: Concentration 20 uM, ASSAY_TEST Inhibition of Bacterial Growth, detection method Resazurin, Fluorescence (ex560/em590), MEDIA CAMHB, plate type 384well, CORNING #3640, time 18 hr
Collected Inhibition values appear next to each entry.
Report only the number, with the unit % understood.

Solved entries:
molecule	recorded.endpoint	unit.abbrev	meas.value
C=CCCC1(C2=CCCCC2)C(=O)NC(=O)NC1=O	Inhibition	%	0.11
[Cl-].c1ccc(-c2nn(-c3ccccc3)[n+](-c3ccccc3)n2)cc1	Inhibition	%	-10.8
COc1cccc2c1C(=O)c1c(O)c3c(c(O)c1C2=O)C[C@@](O)(/C(C)=N\O)C[C@@H]3OC1CC(N)C(O)C(C)O1.Cl (stereo partly specified)	Inhibition	%	-16.23
CC(Cc1ccccc1)NC(N)=O (stereo unspecified)	Inhibition	%	1.52
O=c1nc(C(F)(F)C(F)(F)C(F)(F)F)[nH]o1	Inhibition	%	8.37

Sure, the documented Inhibition for c1ccc(C2NCCc3[nH]cnc32)cc1 (stereo unspecified) is 1.04
